# System: T47D
# assayText: NCI tumour cell line growth inhibition, 48 h
The source made the active and inactive calls. No stated cut-off is given here; in the data, active = GI50 up to about 1.1 µM and inactive = higher. Square brackets hold non-standard residues; d marks the D form. Peptide text beside a SMILES is read from it. * marks the point of attachment. ξ: configuration not given here. Propanoyl(3-(4-MeO-Ph)) = COc1ccc(CCC(=O)*)cc1; Thr(3ξ) = CC(O)[C@H](N)C(=O)O; dNMeL = CN[C@H](CC(C)C)C(=O)O; ξLac = CC(O)C(=O)O

- compound: "N#Cc1c(N2CCCC2)ncn(Cc2ccccc2)c1=O"
  GI50: "> 100 µM (inactive)"
- compound: "CCN1CCN=C2c3cc(OC)ccc3Nc3c([N+](=O)[O-])ccc1c32"
  GI50: "3.32 µM (inactive)"
- compound: "O=C(CCc1cc(O)ccc1O)OCCc1ccccc1"
  GI50: "16.4 µM (inactive)"
- compound: "c1ccc(CSc2nc(N3CCCCC3)c3cn[nH]c3n2)cc1"
  GI50: "21.9 µM (inactive)"
- compound: "CC1C/C(=C\\c2ccc(OC(=O)C(C)(C)C)cc2)C(=O)/C(=C/c2ccc(OC(=O)C(C)(C)C)cc2)C1 (centres undefined)"
  GI50: "59.3 µM (inactive)"
- compound: "Cc1cc(CCC(=O)NCCNc2c3ccccc3nc3ccccc23)cc(C)c1O[Si](C)(C)C(C)(C)C"
  GI50: "0.351 µM (active)"
- compound: "COc1nc(Cl)c(Cl)c(Cl)n1.COc1nc(Cl)nc(Cl)c1Cl"
  GI50: "2.29 µM (inactive)"
- compound: "CCOC(=O)C(NC(=O)CC)(Nc1ccccc1OC)C(F)(F)F (centres undefined)"
  GI50: "> 100 µM (inactive)"
- compound: "COC(=O)[C@@H](NC(=O)[C@@H](CC(C)C)N(C)C(=O)[C@@H]1CCCN1C(=O)C(C)O)C(C)OC(=O)CCc1ccc(OC)cc1 (some centres undefined) (H-[ξLac]P[dNMeL][Thr(3ξ)](Propanoyl(3-(4-MeO-Ph)))-OMe)"
  GI50: "> 100 µM (inactive)"

* * *

# System: HL-60
# assayText: NCI tumour cell line growth inhibition, 48 h
Active and inactive are the calls of the source. No stated cut-off is given here; in the data, active = GI50 up to about 1.1 µM and inactive = higher.
Labels: y for active, n for inactive

- molecule: "COc1ccc(C2N(c3ccc(F)c([N+](=O)[O-])c3)C(=O)N3C(c4ccc(OC)cc4)N(c4ccc(F)c([N+](=O)[O-])c4)C(=O)N23)cc1 (centres undefined)"
  category: "n"
- molecule: "NNC(=O)CC(=O)Nc1ccc(Cl)cc1"
  category: "n"
- molecule: "CCNC(=S)NNC(=O)C12CC3CC(CC(C3)C1)C2"
  category: "n"
- molecule: "COc1ccc(OC)c(/C=C/c2cnnc3ccccc23)c1"
  category: "n"
- molecule: "CC[C@@]1(OC(=O)C(N)CCCCN)C(=O)OCc2c1cc1n(c2=O)Cc2cc3ccccc3nc2-1 (some centres undefined)"
  category: "y"
- molecule: "NC(=O)c1nnn(Cc2cc(Cl)c(C(=O)c3ccc(Cl)cc3)c(Cl)c2)c1N"
  category: "n"
- molecule: "CC(C)NC(=O)OCc1c(COC(=O)NC(C)C)c(-c2ccc[n+](COC(=O)C3CC3)c2)n2c1CCC2"
  category: "n"
- molecule: "N/C(=C\\c1ccc(/C=C(\\NC(=O)c2ccccc2)c2nc3c([nH]2)C(=O)c2ccccc2C3=O)cc1)c1nc2c([nH]1)C(=O)c1ccccc1C2=O"
  category: "n"
- molecule: "O=C1C(Cl)=C(Cl)C(=O)N1c1ccc(Cl)c(Cl)c1Cl"
  category: "n"
- molecule: "COC(=O)c1c(O)c2c(c3c1OC(C)(C)CC3)OC(C)(C)CC2"
  category: "n"
- molecule: "C/N=c1/ssc(=S)n1C(C)C"
  category: "n"
- molecule: "CC(/C=C/C(=O)NO)=C\\C(C)C(=O)c1ccc(N(C)C)cc1 (centres undefined)"
  category: "y"
- molecule: "OC1CC2CCC(C1)N2CCCN1c2ccccc2Sc2ccc(Cl)cc21 (centres undefined)"
  category: "n"
- molecule: "CC1=NN(c2nc(N)nc(CF)n2)C(C)(C)C1"
  category: "n"
- molecule: "COC1OC(C)C2OC(C)(C)OC2C1OC(C)=O (centres undefined)"
  category: "n"
- molecule: "CC1(C)OC(C[C@]2(C#N)C[C@H](CCl)OC(C)(C)O2)C[C@@H](C[C@]2(C#N)C[C@H](CCl)OC(C)(C)O2)O1 (some centres undefined)"
  category: "n"
- molecule: "CC(=O)Oc1ccc2c(c1)O/C(=C\\c1ccc(O)cc1)C2=O"
  category: "n"
- molecule: "CCCC(=O)Nc1ncnc2c1ncn2C1OC2COP(=O)(O)OC2C1OC(=O)CCC (centres undefined)"
  category: "n"
- molecule: "NCC(=O)Nc1ccc(Cl)cc1C(=O)c1ccc[nH]1"
  category: "n"
- molecule: "O=C(N(O)c1ccccc1Cl)C(O)(c1ccccc1)c1ccccc1"
  category: "n"
- molecule: "COc1ccccc1NC(=O)C(=O)C1C(=O)Nc2ccccc2[S+]1[O-] (centres undefined)"
  category: "n"
- molecule: "CC(=O)OC[C@@H](COC(=O)/C=C/c1ccc(O)cc1)OC1OC(CO)C(O)C(O)C1O (some centres undefined)"
  category: "n"
- molecule: "CSc1nc(NC2OCC(O)C(O)C2O)c(N)c(=O)[nH]1 (centres undefined)"
  category: "n"
- molecule: "Cc1[nH]c(=O)[nH]c(=O)c1N(CCF)CCCl"
  category: "n"
- molecule: "O=C(CNc1cccc([N+](=O)[O-])c1)Nn1c(-c2ccccc2)nc2ccccc2c1=O"
  category: "y"
- molecule: "Cc1ccc(S(=O)(=O)C(C#N)c2nc3ccccc3nc2N2CCOCC2)cc1 (centres undefined)"
  category: "n"
- molecule: "COc1ccc(/C(=N/N=c2[nH]c3ccccc3[nH]2)C(=O)O)cc1"
  category: "n"
- molecule: "O=[N+]([O-])c1ccc(C[S+]([O-])Cc2ccccc2)cc1 (centres undefined)"
  category: "n"
- molecule: "CCOc1ccc(/C=C2/C(=O)N/C(=N\\C(C)=O)N2C)cc1"
  category: "n"

* * *

# System: SNB-19
# assayText: NCI tumour cell line growth inhibition, 48 h
Calls of active or inactive are those of the source. Cut-off read from the data, not from the text of the source: active = GI50 up to about 1.1 µM and inactive = higher.
Labels: active, inactive

- molecule: "COc1ccc(-c2oc3cc(O)c(OC)c(O)c3c(=O)c2O)cc1"
  category: "inactive"
- molecule: "CCCCCCCCCC[C@H](O)[C@H](O)CC[C@@H](O)[C@H]1CC[C@@H]([C@H]2CC[C@H](CCCCCCC[C@@H](O)CC3=C[C@H](C)OC3=O)O2)O1"
  category: "inactive"
- molecule: "CCC1(OC(C)=O)C(=O)OCc2c1cc1n(c2=O)Cc2cc3ccccc3nc2-1 (stereo not given)"
  category: "active"
- molecule: "Cc1ccc(C)n2c1nc1cc3ccccc3cc12"
  category: "inactive"
- molecule: "CN(C)CCNC(=O)c1cccc2cc3ccc4ccccc4c3nc12"
  category: "active"

* * *

# System: IGROV-1
# assayText: NCI tumour cell line growth inhibition, 48 h
Calls of active or inactive are those of the source. Rule as the data show it: active = GI50 up to about 1.1 µM and inactive = higher.
Collected GI50 values appear next to each entry.
valueType: GI50

- compound: "Cc1c(C)c2c(c(N)c1C#N)C(=O)N(O)C2=O"
  testValue: "> 100 µM (inactive)"
- compound: "S=c1c2ccccc2c(=S)n2n1CC=CC2"
  testValue: "> 100 µM (inactive)"
- compound: "COC1OC(C)C2OC(C)(C)OC2C1OC(C)=O (stereo unspecified)"
  testValue: "> 100 µM (inactive)"
- compound: "COc1cccc(C2c3cc4c(cc3OC(NNc3ccccc3)C2C)OCO4)c1OC (stereo unspecified)"
  testValue: "4.6 µM (inactive)"
- compound: "CC1=NN2C(=N)/C(=C/c3ccccc3)C(=O)N=C2S1"
  testValue: "> 100 µM (inactive)"
- compound: "CCC(=O)Nc1cccc(NC(=O)c2c(Cl)c(Cl)c(Cl)c(Cl)c2-c2nc3ccccc3[nH]2)c1"
  testValue: "14.2 µM (inactive)"
- compound: "CCCCc1ccc(N2C(=O)c3cccnc3S2(=O)=O)cc1"
  testValue: "> 100 µM (inactive)"
- compound: "O=S(=O)(Nc1nccs1)c1ccc(Nc2nc(-c3cccs3)nc3ccc(I)cc23)cc1"
  testValue: "17.4 µM (inactive)"
- compound: "O=C(/C=C1\\N=C(c2ccccc2)N(c2nc3ccc(Sc4ccccc4)cc3[nH]2)C1=O)/C=C/c1ccccc1"
  testValue: "45.4 µM (inactive)"
- compound: "COc1cn2c(cc1=O)COc1ccc(-c3ccccc3)cc1-2"
  testValue: "38.8 µM (inactive)"
- compound: "Nc1ccn([C@@H]2C=C(CO)[C@@H](O)[C@H]2O)c(=O)n1"
  testValue: "0.108 µM (active)"
